Tested on: IL-1β, human whole blood
Test: Whole blood assay for IL-1β production
Type: cell-based
Settings: Homo sapiens, * = values obtained upon reassay; read-out: Whole human blood IC50
pIC50: −log10 of the molar value.
pIC50: recorded values

Previously resolved entries follow.
**Query** # lookup: pIC50 of COCC(=O)N1C[C@H](NC(=O)c2ccccc2)C(=O)N(CC(=O)N[C@H](C=O)CC(=O)O)c2ccccc21 [Compound 605e]
**Result** < 5.00

**Query** Repeat for the following compound: COC(=O)C[C@H](NC(=O)[C@@H]1CCCN2C(=O)CC[C@H](NC(=O)c3ccccc3)C(=O)N12)C(OC)OC [Compound 2100c]
**Result** < 4.70

Next:
**Query** # lookup: pIC50 of O=C(O)C[C@H](NC(=O)[C@@H]1CCCN2C(=O)CC[C@H](NC(=O)c3ccccc3)C(=O)N12)C(=O)c1nc2cc(Cl)cc(Cl)c2o1 [Compound 223e]
**Result** < 4.70

###

pIC50: recorded values
Test system: IL-1β, human peripheral blood mononuclear cells (PBMC)
Experiment: PBMC cell assay: IL-1β assay with human PBMC or enriched adherent mononuclear cells, LPS-stimulated
Format: cell-based
Details: Homo sapiens, PBMC, * = values obtained upon reassay
Value format note: pIC50 is -log10 of concentration (mol/L); just state the number.

Previously resolved entries follow.
**Query** # lookup: pIC50 of CS(=O)(=O)N[C@H]1CCC(=O)N2CCC[C@@H](C(=O)N[C@@H](CC(=O)O)C(=O)c3nc4cc(Cl)cc(Cl)c4o3)N2C1=O [Compound 223b]
**Result** 5.30

**Query** Repeat for the following compound: COCC(=O)N1C[C@H](NC(=O)c2ccccc2)C(=O)N(CC(=O)N[C@H](C=O)CC(=O)O)c2ccccc21 [Compound 605e]
**Result** 5.65

**Query** Repeat for the following compound: Cc1nc(-c2ccc(C(F)(F)F)cc2)sc1C(=O)N[C@H]1CCC(=O)N2CCC[C@@H](C(=O)N[C@H](C=O)CC(=O)O)N2C1=O
**Result** 6.07

**Query** Repeat for the following compound: O=C[C@H](CC(=O)O)NC(=O)[C@@H]1CCCN2C(=O)CC[C@H](NC(=O)c3ccc4ccccc4n3)C(=O)N12
**Result** 6.27

**Query** Repeat for the following compound: CN(C)c1ccc(C(=O)N[C@H]2CCC(=O)N3CCC[C@@H](C(=O)N[C@H](C=O)CC(=O)O)N3C2=O)c2ccccc12
**Result** 5.60

**Query** Repeat for the following compound: O=C[C@H](CC(=O)O)NC(=O)[C@@H]1CCCN2C(=O)CC[C@H](NC(=O)C(=O)c3ccccc3)C(=O)N12
**Result** 6.09

Continue with the compound presented below.
**Query** # lookup: pIC50 of O=C[C@H](CC(=O)O)NC(=O)[C@@H]1CCCN2C(=O)CC[C@H](NC(=O)c3ccc4ncccc4c3)C(=O)N12
**Result** 6.00

###

Test system: IL-1β, human whole blood
Assay: Whole blood assay for IL-1β production
Type: cell-based
Details: Homo sapiens, * = values obtained upon reassay; read-out: Whole human blood IC50
IC50: recorded values
Return type: number; implicit unit nM.

**Query** # lookup: IC50 of O=C(O)C[C@H](NC(=O)[C@@H]1CCCN2C(=O)CC[C@H](NC(=O)OCc3ccccc3)C(=O)N12)C(=O)COC(=O)c1c(Cl)cccc1Cl [Compound 217d]
**Result** 4000

**Query** Repeat for the following compound: O=C(O)C[C@H](NC(=O)[C@@H]1CCCN2C(=O)CC[C@H](NC(=O)c3ccccc3)C(=O)N12)C(=O)COC(=O)c1c(Cl)cccc1Cl [Compound 217e]
**Result** 2000

Continue with the compound presented below.
**Query** # lookup: IC50 of Cc1c(Cl)cccc1C(=O)N[C@H]1CCC(=O)N2CCC[C@@H](C(=O)N[C@H](C=O)CC(=O)O)N2C1=O
**Result** 800

###

Ki: recorded values
Molecular target: UniProt:P29466
Sequence (P29466 120-297 limits assumed): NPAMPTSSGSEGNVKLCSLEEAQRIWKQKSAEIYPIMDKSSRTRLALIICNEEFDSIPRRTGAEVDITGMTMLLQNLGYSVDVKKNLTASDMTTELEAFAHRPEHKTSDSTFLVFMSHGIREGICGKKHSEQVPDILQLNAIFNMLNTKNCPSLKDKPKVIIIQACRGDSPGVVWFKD
Sequence (P29466 317-404 limits assumed): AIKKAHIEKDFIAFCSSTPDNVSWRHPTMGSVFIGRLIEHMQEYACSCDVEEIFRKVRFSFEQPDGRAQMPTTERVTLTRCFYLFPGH
Assay: Enzyme assay with UV-visible substrate (visible ICE assay, Succinyl-Tyr-Val-Ala-Asp-pNitroanilide)
Format: biochemical
Settings: Table 5
Description: 1. Enzyme Assay with Uv-Visible Substrate This assay is run using an Succinyl-Tyr-Val-Ala-Asp-pNitroanilide substrate. Synthesis of analogous substrates is described by L. A. Reiter (Int. J. Peptide Protein Res. 12, 87-96 (1994)). The assay mixture contains: The visible ICE assay is run in a 96-well microtiter plate. […] The microtiter plate reader is set to incubate at 37° C. […] A linear fit of the data is performed and the rate is calculated in mOD/min. […]
Return type: number; implicit unit nM.

**Query** # lookup: Ki of O=C[C@H](CC(=O)O)NC(=O)[C@@H]1CCCN2C(=O)CC[C@H](NC(=O)c3cccnc3)C(=O)N12
**Result** 45

Continue with the compound presented below.
**Query** # lookup: Ki of O=C[C@H](CC(=O)O)NC(=O)[C@@H]1CCCN2C(=O)CC[C@H](NC(=O)C(=O)c3ccccc3)C(=O)N12
**Result** 4

###

System: IL-1β, human peripheral blood mononuclear cells (PBMC)
Test: PBMC cell assay: IL-1β assay with human PBMC or enriched adherent mononuclear cells, LPS-stimulated
Assay type: cell-based
Conditions: Homo sapiens, PBMC, Table 17
pIC50: −log10 of the molar value.
pIC50: recorded values

**Query** # lookup: pIC50 of CC(=O)Nc1c(Cl)cc(C(=O)N[C@H]2CN(C(=O)CO)c3ccccc3N(CC(=O)N[C@H](C=O)CC(=O)O)C2=O)cc1Cl
**Result** < 5.10

Next:
**Query** # lookup: pIC50 of COC(=O)N[C@H]1CCC(=O)N2CCC[C@@H](C(=O)N[C@@H](CC(=O)O)C(=O)CSc3ncccn3)N2C1=O [Compound 511c]
**Result** < 4.70

**Query** Repeat for the following molecule: CC(=O)N[C@H]1CCC(=O)N2CCC[C@@H](C(=O)N[C@@H](CC(=O)O)C(=O)COc3cccnc3)N2C1=O [Compound 283d]
**Result** < 5.10

###

Tested on: IL-1β, human whole blood
Experiment: Whole blood assay for IL-1β production
Assay type: cell-based
Conditions: Homo sapiens, * = values obtained upon reassay; read-out: Whole human blood IC50
Attribute Measured: pIC50
Value format note: pIC50 is -log10 of concentration (mol/L); just state the number.

Previously resolved entries follow.
**Query** # lookup: pIC50 of CCn1nc(C)cc1C(=O)N[C@H]1CCC(=O)N2CCC[C@@H](C(=O)N[C@H](C=O)CC(=O)O)N2C1=O
**Result** 5.92

**Query** Repeat for the following compound: CC(=O)N1C[C@H](NC(=O)c2ccccc2)C(=O)N(CC(=O)N[C@H](C=O)CC(=O)O)c2c(C)cc(C)cc21 [Compound 605o]
**Result** 4.74

Continue with the compound presented below.
**Query** # lookup: pIC50 of Cn1c(C(=O)N[C@H]2CCC(=O)N3CCC[C@@H](C(=O)N[C@H](C=O)CC(=O)O)N3C2=O)cc2ccccc21
**Result** 5.96

###

Target: ICE (Homo sapiens)
Sequence (P29466 120-297 limits assumed): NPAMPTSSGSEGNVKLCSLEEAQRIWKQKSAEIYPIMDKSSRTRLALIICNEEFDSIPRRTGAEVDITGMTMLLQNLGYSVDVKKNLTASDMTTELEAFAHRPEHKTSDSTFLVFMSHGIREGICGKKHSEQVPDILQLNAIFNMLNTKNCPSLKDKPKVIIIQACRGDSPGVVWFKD
Sequence (P29466 317-404 limits assumed): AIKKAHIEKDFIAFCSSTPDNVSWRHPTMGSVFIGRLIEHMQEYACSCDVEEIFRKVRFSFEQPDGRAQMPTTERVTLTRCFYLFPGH
Test: Enzyme assay with UV-visible substrate (visible ICE assay, Succinyl-Tyr-Val-Ala-Asp-pNitroanilide)
Format: biochemical
Details: Table 17
Attribute Measured: Ki

Previously resolved entries follow.
**Query** # lookup: Ki of CC(=O)Nc1ccc(C(=O)N[C@H]2CCC(=O)N3CCC[C@@H](C(=O)N[C@H](C=O)CC(=O)O)N3C2=O)cc1Cl [Compound 214l]
**Result** 6 nM

**Query** Repeat for the following compound: O=C1C[C@H](NC(=O)[C@@H]2CCCN3C(=O)CC[C@H](NC(=O)c4ccccc4)C(=O)N23)C(OCCc2ccccc2)O1 (mixture of isomers) [Compound 2100k]
**Result** 520 nM

Next:
**Query** # lookup: Ki of O=C[C@H](CC(=O)O)NC(=O)CN1C(=O)[C@@H](NC(=O)c2ccc3[nH]cnc3c2)CN(C(=O)CO)c2ccccc21
**Result** 16 nM

**Query** Repeat for the following compound: O=C[C@H](CC(=O)O)NC(=O)CN1C(=O)[C@@H](NC(=O)c2ccc3c(c2)OCO3)CN(C(=O)CO)c2ccccc21
**Result** 10 nM

**Query** Repeat for the following compound: O=C[C@H](CC(=O)O)NC(=O)[C@@H]1CCCN2C(=O)CCN(NC(=O)Cc3ccc4c(c3)OCO4)C(=O)N12
**Result** 170 nM

**Query** Repeat for the following compound: O=C[C@H](CC(=O)O)NC(=O)[C@@H]1CCCN2C(=O)CCN(NC(=O)CC3CCCCC3)C(=O)N12
**Result** 380 nM
